- Target Entity: K2A2 (CSNK2A2A) (Homo sapiens, UniProt P19784)
- Construct: purchased in-house DSF kinase panel (SGC-style construct names; the trailing letter is the construct ID)
- Sequence (P19784 whole entry): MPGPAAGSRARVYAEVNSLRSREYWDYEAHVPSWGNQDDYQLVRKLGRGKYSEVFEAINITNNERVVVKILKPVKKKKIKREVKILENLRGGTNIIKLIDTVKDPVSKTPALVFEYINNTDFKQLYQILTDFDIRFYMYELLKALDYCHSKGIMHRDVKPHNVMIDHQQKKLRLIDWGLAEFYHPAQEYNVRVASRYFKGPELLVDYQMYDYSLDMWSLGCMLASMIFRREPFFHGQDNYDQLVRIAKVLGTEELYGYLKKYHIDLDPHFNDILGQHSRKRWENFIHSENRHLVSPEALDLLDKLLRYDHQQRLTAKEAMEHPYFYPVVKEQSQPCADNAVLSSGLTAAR
- Protocol Notes: DSF Tm panel
- Assay type: binding
- Condition Parameters: 10 μM compound
Measured Property: ΔTm at 10 µM (°C)

[1] COc1ccc(CNC(=O)Nc2ccc3cc2OCCOCCNc2ccn4ncc-3c4n2)cc1F [compound 32]
[2] Cc1ccc(F)cc1CNC(=O)Nc1ccc2cc1OCCOCCNc1ccn3ncc-2c3n1 [compound 26]
[in] Sorting by ΔTm at 10 µM in descending order, would 1 or 2 appear first? Record your answer as the label of the chosen record.
[out] 1

###

- Target Entity: AAK1 (AAK1A) (Homo sapiens, UniProt Q2M2I8)
- Construct: purchased in-house DSF kinase panel (SGC-style construct names; the trailing letter is the construct ID)
- Sequence (Q2M2I8 27-365): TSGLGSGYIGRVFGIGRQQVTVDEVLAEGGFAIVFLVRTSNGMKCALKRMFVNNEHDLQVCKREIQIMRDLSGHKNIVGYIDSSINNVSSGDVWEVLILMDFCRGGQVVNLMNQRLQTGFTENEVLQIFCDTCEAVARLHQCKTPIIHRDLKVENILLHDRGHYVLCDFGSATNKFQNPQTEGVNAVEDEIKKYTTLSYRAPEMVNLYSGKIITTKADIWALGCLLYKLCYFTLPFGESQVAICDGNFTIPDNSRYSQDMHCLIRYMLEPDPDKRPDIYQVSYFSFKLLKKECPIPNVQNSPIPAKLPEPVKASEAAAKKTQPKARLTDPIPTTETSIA
- Protocol Notes: DSF Tm panel
- Assay type: binding
- Condition Parameters: 10 μM compound
Measured Property: ΔTm at 10 µM (°C)

{"Smiles Notation": "O=C(NCc1ccc(C(F)(F)F)cc1)Nc1ccc2cc1OCCOCCNc1ccn3ncc-2c3n1", "Obs Value": 4.7}
{"Smiles Notation": "COc1ccc(CNC(=O)Nc2ccc3cc2OCCOCCNc2ccn4ncc-3c4n2)cc1", "Obs Value": 6.7}
{"Smiles Notation": "O=C(NCc1ccc(Cl)cc1)Nc1ccc2cc1OCCOCCNc1ccn3ncc-2c3n1", "Obs Value": 7.1}
{"Smiles Notation": "O=C(NCc1ccc(Cl)cc1Cl)Nc1ccc2cc1OCCOCCNc1ccn3ncc-2c3n1", "Obs Value": 6.3}

###

- Target Entity: DYRK2A (Homo sapiens, UniProt Q92630)
- Construct: purchased in-house DSF kinase panel (SGC-style construct names; the trailing letter is the construct ID)
- Sequence (Q92630 1-601): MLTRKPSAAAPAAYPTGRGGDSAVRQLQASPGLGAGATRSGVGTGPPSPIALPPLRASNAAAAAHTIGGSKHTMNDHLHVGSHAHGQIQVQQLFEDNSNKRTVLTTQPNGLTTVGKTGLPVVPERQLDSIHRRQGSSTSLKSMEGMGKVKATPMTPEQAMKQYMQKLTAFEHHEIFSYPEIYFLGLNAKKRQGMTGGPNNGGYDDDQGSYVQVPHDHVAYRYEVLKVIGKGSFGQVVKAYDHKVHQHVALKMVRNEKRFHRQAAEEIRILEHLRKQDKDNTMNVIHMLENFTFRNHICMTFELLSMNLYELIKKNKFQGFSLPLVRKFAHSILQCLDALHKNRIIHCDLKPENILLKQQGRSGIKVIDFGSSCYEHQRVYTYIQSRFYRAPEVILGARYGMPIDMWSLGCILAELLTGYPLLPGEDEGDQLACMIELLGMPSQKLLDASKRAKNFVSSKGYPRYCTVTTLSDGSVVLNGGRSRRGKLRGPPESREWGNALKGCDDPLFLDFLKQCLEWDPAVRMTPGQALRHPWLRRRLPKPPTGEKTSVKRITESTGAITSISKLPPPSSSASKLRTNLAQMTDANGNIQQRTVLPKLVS
- Protocol Notes: DSF Tm panel
- Assay type: binding
- Condition Parameters: 10 μM compound
Measured Property: ΔTm at 10 µM (°C)

Answered cases to consult:
{"Smiles Notation": "COc1cc(CNC(=O)Nc2ccc3cc2OCCOCCNc2ccn4ncc-3c4n2)ccc1F", "Obs Value": 3.9}
{"Smiles Notation": "O=C(NCc1ccccc1)Nc1ccc2cc1OCCOCCNc1ccn3ncc-2c3n1", "Obs Value": 3.7}
{"Smiles Notation": "O=C(NCc1ccc(Cl)cc1F)Nc1ccc2cc1OCCOCCNc1ccn3ncc-2c3n1", "Obs Value": 0.7}
{"Smiles Notation": "Cc1cc(Br)ccc1CNC(=O)Nc1ccc2cc1OCCOCCNc1ccn3ncc-2c3n1", "Obs Value": 0.5}

[1] O=C(NCc1cccc(Cl)c1)Nc1ccc2cc1OCCOCCNc1ccn3ncc-2c3n1
[2] O=C(NCc1ccc(Cl)cc1Cl)Nc1ccc2cc1OCCOCCNc1ccn3ncc-2c3n1
[3] COc1ccc(CNC(=O)Nc2ccc3cc2OCCOCCNc2ccn4ncc-3c4n2)cc1
[in] Sort ascending by ΔTm at 10 µM. Use the labels to give the ranking in the order requested.
[out] 2, 3, 1

###

- Target Entity: PIM1 (PIM1A) (Homo sapiens)
- Construct: purchased in-house DSF kinase panel (SGC-style construct names; the trailing letter is the construct ID)
- Sequence (P11309 whole entry): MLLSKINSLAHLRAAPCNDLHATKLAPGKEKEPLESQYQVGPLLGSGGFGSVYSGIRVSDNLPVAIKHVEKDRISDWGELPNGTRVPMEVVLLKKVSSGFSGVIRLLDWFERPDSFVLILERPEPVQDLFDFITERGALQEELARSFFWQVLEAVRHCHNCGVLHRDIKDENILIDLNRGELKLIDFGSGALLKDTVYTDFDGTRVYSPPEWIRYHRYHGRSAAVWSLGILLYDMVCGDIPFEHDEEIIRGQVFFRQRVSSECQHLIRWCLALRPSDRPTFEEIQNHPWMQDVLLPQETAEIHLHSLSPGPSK
- Protocol Notes: DSF Tm panel
- Format: binding
- Condition Parameters: 10 μM compound
Measured Property: ΔTm at 10 µM (°C)

For orientation, consider the following solved cases.
{"Smiles Notation": "O=C(NCc1ccc(Cl)cc1)Nc1ccc2cc1OCCOCCNc1ccn3ncc-2c3n1", "Obs Value": 1.8}
{"Smiles Notation": "O=C(NCc1ccc(C(F)(F)F)cc1)Nc1ccc2cc1OCCOCCNc1ccn3ncc-2c3n1", "Obs Value": 1}
{"Smiles Notation": "O=C(NCc1ccc(Cl)cc1Cl)Nc1ccc2cc1OCCOCCNc1ccn3ncc-2c3n1", "Obs Value": 3}
{"Smiles Notation": "COc1cccc(CNC(=O)Nc2ccc3cc2OCCOCCNc2ccn4ncc-3c4n2)c1", "Obs Value": 1}
{"Smiles Notation": "COc1ccccc1CNC(=O)Nc1ccc2cc1OCCOCCNc1ccn3ncc-2c3n1", "Obs Value": 1}

[I] O=C(NCc1ccc(Cl)cc1F)Nc1ccc2cc1OCCOCCNc1ccn3ncc-2c3n1
[II] COc1cc(CNC(=O)Nc2ccc3cc2OCCOCCNc2ccn4ncc-3c4n2)ccc1F
[in] Larger number for ΔTm at 10 µM: I , or II ? Selection: enter the item's label.
[out] I
(I: 2.8 °C, II: 1.6 °C)

[I] O=C(NCc1ccccc1Cl)Nc1ccc2cc1OCCOCCNc1ccn3ncc-2c3n1
[II] Cc1cc(Br)ccc1CNC(=O)Nc1ccc2cc1OCCOCCNc1ccn3ncc-2c3n1
[in] // task: argmin of ΔTm at 10 µM over [ I , II ] Give the label of your selection.
[out] II
(II: 0.5 °C, I: 1.5 °C)

###

- Target Entity: CAMK1DA (Homo sapiens)
- Construct: purchased in-house DSF kinase panel (SGC-style construct names; the trailing letter is the construct ID)
- Sequence (Q8IU85 whole entry): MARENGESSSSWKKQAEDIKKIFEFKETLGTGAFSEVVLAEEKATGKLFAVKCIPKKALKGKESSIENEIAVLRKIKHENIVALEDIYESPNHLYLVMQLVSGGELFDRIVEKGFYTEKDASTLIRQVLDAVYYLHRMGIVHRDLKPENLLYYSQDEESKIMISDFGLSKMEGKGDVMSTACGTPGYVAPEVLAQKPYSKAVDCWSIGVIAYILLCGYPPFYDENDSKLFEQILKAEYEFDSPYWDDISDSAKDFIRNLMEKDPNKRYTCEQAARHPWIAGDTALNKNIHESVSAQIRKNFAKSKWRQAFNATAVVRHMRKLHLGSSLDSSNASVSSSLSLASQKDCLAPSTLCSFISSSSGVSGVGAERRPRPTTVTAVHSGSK
- Protocol Notes: DSF Tm panel
- Format: binding
- Condition Parameters: 10 μM compound
Measured Property: ΔTm at 10 µM (°C)

Would you please look over these solved cases?
{"Smiles Notation": "COc1ccc(CNC(=O)Nc2ccc3cc2OCCOCCNc2ccn4ncc-3c4n2)cc1", "Target Entity": "CAMK1DA (Homo sapiens)", "ΔTm at 10 µM (°C)": 1.2}
{"Smiles Notation": "Cc1ccc(F)cc1CNC(=O)Nc1ccc2cc1OCCOCCNc1ccn3ncc-2c3n1", "Target Entity": "CAMK1DA (Homo sapiens)", "ΔTm at 10 µM (°C)": 1}
{"Smiles Notation": "COc1cc(CNC(=O)Nc2ccc3cc2OCCOCCNc2ccn4ncc-3c4n2)ccc1F", "Target Entity": "CAMK1DA (Homo sapiens)", "ΔTm at 10 µM (°C)": 1.1}
{"Smiles Notation": "COc1ccc(CNC(=O)Nc2ccc3cc2OCCOCCNc2ccn4ncc-3c4n2)cc1F", "Target Entity": "CAMK1DA (Homo sapiens)", "ΔTm at 10 µM (°C)": 1.4}

[1] Cc1cc(Br)ccc1CNC(=O)Nc1ccc2cc1OCCOCCNc1ccn3ncc-2c3n1
[2] O=C(NCc1ccccc1Cl)Nc1ccc2cc1OCCOCCNc1ccn3ncc-2c3n1
[3] O=C(NCc1ccc(Cl)cc1)Nc1ccc2cc1OCCOCCNc1ccn3ncc-2c3n1
[4] O=C(NCc1cccc(Cl)c1)Nc1ccc2cc1OCCOCCNc1ccn3ncc-2c3n1
[in] Order the 4 molecules from highest to lowest ΔTm at 10 µM. Returns: the labels listed in the requested order.
[out] 1, 3, 4, 2

###

- Target Entity: NEK2A (Homo sapiens)
- Construct: purchased in-house DSF kinase panel (SGC-style construct names; the trailing letter is the construct ID)
- Sequence (P51955 1-271): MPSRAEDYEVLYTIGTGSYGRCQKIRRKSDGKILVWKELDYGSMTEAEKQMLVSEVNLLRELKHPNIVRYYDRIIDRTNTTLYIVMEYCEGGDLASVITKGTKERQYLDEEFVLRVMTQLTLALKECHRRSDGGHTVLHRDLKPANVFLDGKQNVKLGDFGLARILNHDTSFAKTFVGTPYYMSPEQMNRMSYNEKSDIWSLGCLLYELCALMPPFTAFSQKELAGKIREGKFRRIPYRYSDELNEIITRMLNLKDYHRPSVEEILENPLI
- Protocol Notes: DSF Tm panel
- Type: binding
- Condition Parameters: 10 μM compound
- Description: The synthesized urea-based derivatives were evaluated in a panel of kinases by differential scanning fluorescence (DSF) to investigate their selectivity profile. […] This was also reflected in the overall low selectivity score (S) throughout the series, which is determined by the ratio between the number of kinases that are stabilized above 5 °C and the total number of kinases tested (Figure ). […]
Measured Property: ΔTm at 10 µM (°C)

Worked examples follow.
{"Smiles Notation": "Cc1ccc(F)cc1CNC(=O)Nc1ccc2cc1OCCOCCNc1ccn3ncc-2c3n1", "ΔTm at 10 µM (°C)": -1.2}
{"Smiles Notation": "Cc1cc(Br)ccc1CNC(=O)Nc1ccc2cc1OCCOCCNc1ccn3ncc-2c3n1", "ΔTm at 10 µM (°C)": -1.3}
{"Smiles Notation": "COc1ccc(CNC(=O)Nc2ccc3cc2OCCOCCNc2ccn4ncc-3c4n2)cc1F", "ΔTm at 10 µM (°C)": -1.3}

[P] O=C(NCc1ccccc1C(F)(F)F)Nc1ccc2cc1OCCOCCNc1ccn3ncc-2c3n1
[Q] C[C@H](NC(=O)Nc1ccc2cc1OCCOCCNc1ccn3ncc-2c3n1)c1ccccc1
[in] Could you determine which record has the numerically smaller ΔTm at 10 µM? Candidates: P and Q Lab log: write the label of the selected item as the result.
[out] Q
